target: Neuraminidase (Influenza A virus (strain A/USSR/90/1977 H1N1), UniProt P03469, H274Y); assay: Inhibition of Influenza A virus (A/California/04/2009 (H1N1)) Neuraminidase H274Y mutant using MUNANA as substrate preincubated for 5 to 15 mins followed by substrate addition and measured after 30 mins by fluorescence spectrophotometric method
Entries and their IC50
Return type: number; implicit unit nM.

Here is how some compounds turned out for IC50.
Smiles Notation	Units Label	IC50
CCCCNNC(=O)N[C@H]1CC(C(=O)O)=C[C@@H](OC(CC)CC)[C@@H]1NC(C)=O	nM	147
CCC(CC)O[C@@H]1C=C(C(=O)O)C[C@H](NC(=O)NN)[C@H]1NC(C)=O	nM	133
CCCNNC(=O)N[C@H]1CC(C(=O)O)=C[C@@H](OC(CC)CC)[C@@H]1NC(C)=O	nM	384

INPUT: Need IC50 of "CCC(CC)O[C@@H]1C=C(C(=O)O)C[C@H](NC(=O)NNC)[C@H]1NC(C)=O" , thanks.
OUTPUT: 118

INPUT: Look up IC50: "CCC(CC)O[C@@H]1C=C(C(=O)O)C[C@H](NC(N)=O)[C@H]1NC(C)=O"
OUTPUT: 667
